Measured apparent KD of K4 kissing-loop reporter accompanies every entry in the list below.
tested on: K4 kissing-loop RNA reporter; experiment: apparent KD of K4 kissing-loop reporter; higher = weaker reporter binding; details: Eterna round: R107; input ligand: tryptophan 2.4 mM
RESULT_TYPE: apparent KD of K4 kissing-loop reporter (nM)

>  <SEQ>
GCUGCCAUGGCAGGAUAUAUAAAUGCUGAGUGAUGUUCUGCAUCAUAUGUCCCUGACCGCGGCGGUGUAGAAGGGCCAUGGCAGC

>  <VALUE_OBSERVED>
103

$$$$
>  <SEQ>
GUAUCGCUAGGAGGAUAUUUCAAUUUGACUCUUUGAGUUAAUACGGAGUGAUGUUCCGUUUUACGGAAAGAAGGCCUAGUGAUAC [FMN B 14]

>  <VALUE_OBSERVED>
166

$$$$
>  <SEQ>
CCGGGCGGCUGAAGGAGCGGGCGGGCCCGAGUGAUGUUCGGGUGGGCCGUGAGGCCCGGAGCCCAGGUAGGUCGCGGUUCCGUCC [#2 Same State - Arginine B Attempt #18 (HarryS)]

>  <VALUE_OBSERVED>
140

$$$$

* * *

test system: K4 kissing-loop RNA reporter; experiment: apparent KD of K4 kissing-loop reporter; higher = weaker reporter binding; conditions: Eterna round: R107; input ligand: FMN 200 uM;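 note: bound reporter read as fluorescence of individual clusters on recovered sequencing chips by microscopy, with normalized cluster intensities fitted with a binding model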
Measured apparent KD of K4 kissing-loop reporter accompanies every entry in the list below.

>  <SEQ>
CGUUUAUAGCAGGAUACCAGUACCCAUUAUGUACGUUUAUAGUAGAGUGAUGUUCUAAAGUACCCUUGGCAGCUUCCUGUGUCCC [ExTheophylB.Ab]

>  <apparent KD of K4 kissing-loop reporter / nM>
163

$$$$
>  <SEQ>
UUGUUAUGAUAAAAUCCUGUUUGAUAAAGACAGGAUAUAGAAAAUACUAGAAGGGUCAUUAUAUGCAGUGAUGUUGCAAAUAAGU [Exclusion FMN A Gf 22]

>  <apparent KD of K4 kissing-loop reporter / nM>
41

$$$$
>  <SEQ>
GGCCGCAAGGCGAGCGCUCCCACUCCGGAAGGAGCGCCCGUAAGGGCAGGUAGGUCGCCGGAGUGAUGUUCCGGUGGAGGGCUCG [#2 Exclusion - Arginine A Attempt #17 (Inspired by Omei)]

>  <apparent KD of K4 kissing-loop reporter / nM>
565

$$$$
>  <SEQ>
UGUGUUGUUUUGAUGUUUGGUGUUGCAUGGCAGGAUAUCGUAGAGGCGAGAAGGGCUUGUGAGCGGUAUGAGUGAUGUUUGUAGG [bbgbmullin]

>  <apparent KD of K4 kissing-loop reporter / nM>
433

$$$$
>  <SEQ>
UGGAUAUAGUGAUGUUAUAUAGAGAGUGAUACCAGUUUAGAGAAGAACCCUUGGCAGCAUAAAGAAGUAUCAUUAGAGAAGAAUG [ExTheophyl.Ao]

>  <apparent KD of K4 kissing-loop reporter / nM>
229

$$$$
>  <SEQ>
AGACUACCACACUGUCAAUAGACAGUGAACUAGGAUAUGCUGAUAAGCAGAAGGAGUGAUGUUCCUUGGUAGUCAAUAAAAUAAU [FmnAX 13 U67]

>  <apparent KD of K4 kissing-loop reporter / nM>
308

$$$$

* * *

test system: MS2 coat protein; assay: apparent KD of MS2 coat protein, switch OFF state (with FMN for OFF switches, without FMN for ON switches); designed switch direction (-1 OFF switch, 1 ON switch): -1; higher = weaker reporter binding; conditions: FMN input: 0 or 200 uM; Eterna round: R93 (includes R88 designs)
Returns one of yes or no; yes when apparent KD of MS2 coat protein is >= 50 nM.

>  <SEQ>
AGCUAGUCAGGAUAUACGAACAUGUCAAAAGACGAGAAGGGACAUGAGGAUCACCCAUGUAGAAGGGACUAGCA [Diamond 21]

>  <TARGET>
MS2 coat protein

>  <LABEL_CLASS>
yes

$$$$
>  <SEQ>
AAAAAUUGAGGAUAUACAUGAGGAUCACCCAUGUUAGAACAAAAAAAAGGGAAAGAAAGUAGAAGGCAAUAAAA [Ex 3 May 26]

>  <TARGET>
MS2 coat protein

>  <LABEL_CLASS>
no

$$$$
>  <SEQ>
UAGAACCUAGGAUAUACUUGGGAAACUAAUGCAAAGAUAUAACAUGAGGAUCACCCAUGUAGAAGGAGGAGUAA [JR_Exc002_Sub019]

>  <TARGET>
MS2 coat protein

>  <LABEL_CLASS>
yes

$$$$
>  <SEQ>
AAAAAACAUGAGGAUCACCCAUGUAAGGAUAUCUAAAAUAAAAGAAAAAUAAAGAAAAGGAGAAGGUAUAUGGA [JL wbt mod 24]

>  <TARGET>
MS2 coat protein

>  <LABEL_CLASS>
no

$$$$
>  <SEQ>
UAUAGACAUGAGGAUCACCCAUGUGAGGAUAUCAGUGACUACAGGACAUCACGUACAAUGAGAAGGCACAGAAA [JR_Exc001_Sub015]

>  <TARGET>
MS2 coat protein

>  <LABEL_CLASS>
no

$$$$
>  <SEQ>
AAAAAGUUAGGAUAUACAUGAGGAUCACCCAUGUGCACAUAUGGAGAAUAUGGUAGUAGUAGAAGGGACAAAAA [EX2 Malc#16]

>  <TARGET>
MS2 coat protein

>  <LABEL_CLASS>
no

$$$$
>  <SEQ>
AAAAAACAUGAGGAUCACCCAUGUGAGGAUAUGCGAAAAUAAAAUAAAAUAAUAAAAAGCAGAAGGCACAAAAA [58%, Sh'dynasty, 1]

>  <TARGET>
MS2 coat protein

>  <LABEL_CLASS>
yes

$$$$
>  <SEQ>
AAACCACAUGAGGAUCACCCAUGUAAGGAUAUGAACGAAAAUAAAUAAAAAUAAAAGUUCAGAAGGUACAAAAA [66%, Wbt, 22]

>  <TARGET>
MS2 coat protein

>  <LABEL_CLASS>
no

$$$$
>  <SEQ>
AACAAACAUGAGGAUCACCCAUGUGAGGAUAUGAAAAUAAAUAAAAAUAAAAUAAAAAUCAGAAGGCACAACAA [JR_Exc001_Sub003]

>  <TARGET>
MS2 coat protein

>  <LABEL_CLASS>
no

$$$$
>  <SEQ>
AACAUGUCAGGAUAUUAAAGAAAAGAAAAGAAAGAAAAGAAUAAGAAGGGACAUGAGGAUCACCCAUGUAAGAA [EteRNA is fun!]

>  <TARGET>
MS2 coat protein

>  <LABEL_CLASS>
no

$$$$
>  <SEQ>
CUUAUGUGAGGAUAUCAGUAGUAAAAAAAAAAAAUUACUACUGAGAAGGCACAUGAGGAUCACCCAUGUGCAUU [EX4 322: Super Stable 22]

>  <TARGET>
MS2 coat protein

>  <LABEL_CLASS>
no

$$$$
>  <SEQ>
AAGAACUGAGGAUAUACUUUGGGAAAAGAAAAGAUGAUGUUACAUGAGGAUCACCCAUGUAGAAGGCAGAAGAA [Mat - Exclusion 2 - Mod - D153]

>  <TARGET>
MS2 coat protein

>  <LABEL_CLASS>
no

$$$$
>  <SEQ>
AACUGACAUGAGGAUCACCCAUGUCAGGAUAUGACUUCGAAAAAAAAAAAAAACGAUGUCAGAAGGGACAUGGA [Design 66: Sub-opt N]

>  <TARGET>
MS2 coat protein

>  <LABEL_CLASS>
no

$$$$
>  <SEQ>
AUAGGUCAAGGAUAUACAUGAGGAUCACCCAUGUAAAUAACUCCAUAAAACUCCACAAGUAGAAGGUGAAAUAA [JR_Exc003_Sub202]

>  <TARGET>
MS2 coat protein

>  <LABEL_CLASS>
no

$$$$
>  <SEQ>
AGAAAACAUGAGGAUCACCCAUGUCAGGAUAUCCAAAUAAAAAUAAAAUAAAAUAAAAGGAGAAGGGACAAAAG [May 1]

>  <TARGET>
MS2 coat protein

>  <LABEL_CLASS>
yes

$$$$
>  <SEQ>
AACAGUACAGGAUAUACAUGAGGAUCACCCAUGUGAGUUUUAAAAGGCGUACCUAAAAGUAGAAGGGUACUGGA [JL Maslow Revisted mod 20]

>  <TARGET>
MS2 coat protein

>  <LABEL_CLASS>
no

$$$$
>  <SEQ>
AACAGUACAGGAUAUACAUGAGGAUCACCCAUGUGGGAGAAAAGAUCGAGAGAUCAAUGUAGAAGGGUACUGGA [JL In the Red 07]

>  <TARGET>
MS2 coat protein

>  <LABEL_CLASS>
yes

$$$$
>  <SEQ>
AGUUGGCGAGGAUAUACAUGAGGAUCACCCAUGUAAGAGUAAAGAGUGAGAAAGAGAAGUAGAAGGCGCUGACA [Ruby 57]

>  <TARGET>
MS2 coat protein

>  <LABEL_CLASS>
yes

$$$$
>  <SEQ>
AAACAGGGAGGAUAUACACCAUACAAACCUCUAAACAAAAGACAUGAGGAUCACCCAUGUAGAAGGCCCAACAA [Default title]

>  <TARGET>
MS2 coat protein

>  <LABEL_CLASS>
yes

$$$$
>  <SEQ>
UAAAAACAUGAGGAUCACCCAUGUCAGGAUAUGUGCUUAAUAAAAAAAUAAAUAACAAGCAGAAGGGACAAUAA [JR_Exc001_Sub201]

>  <TARGET>
MS2 coat protein

>  <LABEL_CLASS>
no

$$$$
>  <SEQ>
AAAAAGGCAGGAUAUGCAUACACACAAAAAAAAAAACUGGGACAUGAGGAUCACCCAUGUAGAAGGGCCAAAAA [Dora Explored 8 - Jieux - Exclusion 2]

>  <TARGET>
MS2 coat protein

>  <LABEL_CLASS>
yes

$$$$
>  <SEQ>
AAAACGUGAGGAUAUGCACCAAAAAAGAAAAAACGGGUACGACAUGAGGAUCACCCAUGUAGAAGGCACGAAAA [Frodo Flailing 8 - Jieux - Exclusion 2]

>  <TARGET>
MS2 coat protein

>  <LABEL_CLASS>
no

$$$$
>  <SEQ>
AGAAAGCGAGGAUAUGCACGGGAAGAAAGAAGAGAGAAAAAACAUGAGGAUCACCCAUGUAGAAGGUGUAUAAA [JR_Exc002_Sub1713]

>  <TARGET>
MS2 coat protein

>  <LABEL_CLASS>
no

$$$$
